Provide the reported GCGR EC50 human of each item.
- Experimental System: human Glucagon receptor (GCGR) (human, UniProt P47871 26-477)
- Sequence (P47871 26-477): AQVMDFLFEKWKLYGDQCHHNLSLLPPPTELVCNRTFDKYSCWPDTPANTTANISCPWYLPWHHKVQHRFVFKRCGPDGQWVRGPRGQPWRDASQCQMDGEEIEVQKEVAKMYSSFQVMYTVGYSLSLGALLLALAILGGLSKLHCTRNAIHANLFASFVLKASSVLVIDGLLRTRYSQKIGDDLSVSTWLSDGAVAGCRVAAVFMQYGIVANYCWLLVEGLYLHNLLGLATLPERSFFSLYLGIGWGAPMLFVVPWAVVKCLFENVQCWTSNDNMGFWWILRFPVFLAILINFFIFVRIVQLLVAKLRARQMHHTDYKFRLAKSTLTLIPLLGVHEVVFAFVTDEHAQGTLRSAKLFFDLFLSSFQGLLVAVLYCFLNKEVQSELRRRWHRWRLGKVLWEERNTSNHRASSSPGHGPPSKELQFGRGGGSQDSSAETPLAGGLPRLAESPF
- Assay Notes: cell-based or functional assay
Numbered stars: 1 amine (or outer) side, 2 acyl side, 3 side chain; on linkers, the order of the positions; unused ones are H or OH. Square brackets hold non-standard residues; d marks the D form. Side chains are listed from the residue outwards. Ends that are not written are not given here. * marks the point of attachment. C16 diacid = O=C(O)CCCCCCCCCCCCCCC(=O)*; γGlu = O=C(O)[C@H](CCC(=O)[*:2])N[*:1]; Met(O2) = CS(=O)(=O)CC[C@H](N)C(=O)O; αMeD = C[C@](N)(CC(=O)O)C(=O)O; AEEA = NCCOCCOCC(=O)O; Aib = CC(C)(N)C(=O)O
Numbers only, in nM.

H[Aib]QGTFTSDYSKYLD[Aib]RAAK([AEEA-AEEA-γGlu-C16 diacid])DFVQWLLATK-{γGlu-NH2} [TP662] ... 1.45
HXQGTFTSDYSKYLDARAAQXFVQWLXXT (Aib (U) at 2; K(PEG5-γEC18-OH) at 21; L-methionine sulphone (2) at 27; αMD (printed aMD) at 28; C-terminal amide) [TP608] ... 0.21

Would you be so kind as to report GCGR EC50 human for each listed record?
1. H[Aib]QGTFTSDYSKYLD[Aib]RAAK([AEEA-AEEA-γGlu-C20‑OH])DFVQWL[Met(O2)][αMeD]T-NH2 [TP588]
2. HXQGTFTSDYSKYLDSRAAXDFVQWLXDT (Aib (U) at 2; K(PEG2PEG2γEC20-OH) at 20; L-methionine sulphone (2) at 27; C-terminal amide) [TP577]
3. H[Aib]QGTFTSDYSKYLDARAAK([AEEA-AEEA-γGlu-C20‑OH])DFVQWL[Met(O2)][αMeD]T-NH2 [TP565]

1. 2.67
2. 4.54
3. 5.42
